// data source = patent US20200031927A1

- system-under-test: T1, soluble KIR3DL1*033-Fc (human, UniProt P43629 22-340)
- T1 construct: also called KIR3DL1 allele 033; Allele 033; not shown: Fc domain
- T1 sequence (P43629 other isoform, or with tags, fused parts or gaps): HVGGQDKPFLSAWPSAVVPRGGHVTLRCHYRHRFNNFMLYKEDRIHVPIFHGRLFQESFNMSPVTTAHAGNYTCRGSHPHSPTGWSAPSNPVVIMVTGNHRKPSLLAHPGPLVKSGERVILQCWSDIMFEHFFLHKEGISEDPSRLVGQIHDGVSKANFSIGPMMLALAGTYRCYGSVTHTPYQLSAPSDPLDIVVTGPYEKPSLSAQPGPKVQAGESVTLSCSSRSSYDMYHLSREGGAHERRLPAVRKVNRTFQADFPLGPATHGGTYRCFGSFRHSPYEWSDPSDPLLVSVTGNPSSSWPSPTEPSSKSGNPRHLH
- test-name: BLI (ForteBio QK), hIgG1
Please go through the items and note down their Kd.
Give bare numbers, in nM.

[[record]]
binder = "ET160-72 (antibody, human IgG1, V domains shown, Tested as human IgG1 (hIgG1), lambda light chain) VH: QVQLVQSGGGVVRSGGSLRLTCAASGFTFGDYGMSWVRQAPGKGLEWVSGINWNGGGTGYADSVKGRFTISRDNAKDSLYLQMNSLRAEDTALYYCARVWGCGSTTCYEGADDAFDIWGQGTMVTVSS VL: LPVLTQPPSISGAPRQRVTISCSGARSNIGNNAVNWYQQVPGEAPKLLIFYDDQQPSGISGRFSGSKSGTSASLAISGLQSEDEADYYCAAWDDSLNGWVFGGGTKLTVLG"
endpoint_unit = "nM"
quantitative_readout = 15.4


Fill in Kd for each of the 3 binders listed.
1. ET160-73 (antibody, human IgG1, V domains shown, Tested as human IgG1 (hIgG1), kappa light chain) VH: QVQLVQSGAEVKKPGESLKISCKGSGYSFTSYWIGWVRQMPGKGLEWMGIIYPGDSDTRYSPSFQGQVTISADKSISTAYLQWSSLKASDTAMYYCARGREQLWLDGMDVWGQGTTVTVSS VL: DVVMTQSPLSLPVTLGQPASISCRSTQSLVHSDGNTYLNWFQQRPGQSPRRLIYGVSNRDFGVPDRFSASGSGTDFTLKINRVEAEDVGVYYCMQGTHWPLTFGQGTKVEIKR
2. ET160-77 (antibody, human IgG1, V domains shown, Tested as human IgG1 (hIgG1), lambda light chain) VH: EVQLVETGGGLVKPGGSLRLSCAASGFTFSDYYMSWIRQAPGKGLEWVSYISSSSSYTNYADSVKGRFTISRDNAKNSLYLQMNSLRAEDTAVYYCAREGIAAADAFDIWGQGTMVTVSS VL: SYELTQPPSVSVAPGQAATITCAGDNIESKSVNWYQQKPGQAPVLVVYDDTVRPSGIPERFSGSNSGNPATLTISRSEAGDEADYYCQVWDNRRDHVVFGGGTKVTVLG
3. ET160-74 (antibody, human IgG1, V domains shown, Tested as human IgG1 (hIgG1), lambda light chain) VH: QVQLVQSGAEVKKPGSSVKVSCKASGGTFSSYAISWVRQAPGQGLEWMGWMNPNSGNTGYAQKFQGRVTMTRNTSISTAYMELSSLRSEDTAVYYCARYSFHLDGWGQGTLVTVSS VL: QSVLTQPPSVSAAPGQKVTISCSGSSSNVGNNYVSWYQQVPGTAPKLLIYDNNRRPSGIPDRFSGSKSGTSATLGITGLQTGDEADYYCGTWDNSLRVELFGGGTKVTVLG

Result:
[14.4, 13.1, 11]
